Numbers sourced from the supplement of paper PMC10567573.

Measured protein stability index, listed per entry for reference.
B1: FCHO1 (parent)
chain: DKLALCHLELTRKLQDLIKDVLRY

Variants of: B1
Assay: protein stability index of a GFP-peptide fusion (GPS, HEK-293T) (PSI 1-6); higher = more stable;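 also: lentivirally expressed fusions sorted by FACS into six bins by GFP to DsRed ratio, PSI derived from sequencing read proportions per bin multiplied by bin number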
Conditions: c terminus: a fixed tail appended
observed property: protein stability index

residues	observed property	val
DKLALCHLELTRKSQDLIKDVLRY [L14S]	protein stability index	2.13
DKLALCHLELTRKMQDLIKDVLRY [L14M]	protein stability index	4.05
DKFALCHLELTRKLQDLIKDVLRY [L3F]	protein stability index	2.93
DKLPLCHLELTRKLQDLIKDVLRY [A4P]	protein stability index	2.33
DKLALCHLELTRCLQDLIKDVLRY [K13C]	protein stability index	1.75
DKLALCHLELTRKLQSLIKDVLRY [D16S]	protein stability index	2.2
DKLALCHWELTRKLQDLIKDVLRY [L8W]	protein stability index	2
DKLALCHLELTRRLQDLIKDVLRY [K13R]	protein stability index	2.23
DKLALCHLELTRKLQDLPKDVLRY [I18P]	protein stability index	2.11
DKLALCHLELTRKLQDLIEDVLRY [K19E]	protein stability index	2.16
DKLALCHLENTRKLQDLIKDVLRY [L10N]	protein stability index	1.21
DKLALCHLEYTRKLQDLIKDVLRY [L10Y]	protein stability index	1.76
DKHALCHLELTRKLQDLIKDVLRY [L3H]	protein stability index	2.12
DKLALCHDELTRKLQDLIKDVLRY [L8D]	protein stability index	2.63
DKLALCHLEATRKLQDLIKDVLRY [L10A]	protein stability index	2.75
DKLALCHLELTGKLQDLIKDVLRY [R12G]	protein stability index	2.7
DKLAWCHLELTRKLQDLIKDVLRY [L5W]	protein stability index	4.03
DILALCHLELTRKLQDLIKDVLRY [K2I]	protein stability index	2.57
VKLALCHLELTRKLQDLIKDVLRY [D1V]	protein stability index	3.12
DKLALCHLELTRKLQDLIKDVLIY [R23I]	protein stability index	1.47
DKLALCHLELTRKLQILIKDVLRY [D16I]	protein stability index	2.67
DKAALCHLELTRKLQDLIKDVLRY [L3A]	protein stability index	1.44
DKLALCHLELTRKLQDLIKIVLRY [D20I]	protein stability index	2.16
DKLALCHLELTRKLQDLIKDVLRG [Y24G]	protein stability index	2.98
DKLALCHLELTRKLYDLIKDVLRY [Q15Y]	protein stability index	2.79
DKLALCHLELTRKLQDLIKDVLRT [Y24T]	protein stability index	2.26
DKLALCHLELTRKLQDLIKDVLDY [R23D]	protein stability index	2.08
DKLALCHLNLTRKLQDLIKDVLRY [E9N]	protein stability index	5.51
DKLALCHLELCRKLQDLIKDVLRY [T11C]	protein stability index	3.34
DKLALCHLELTRKLQDLICDVLRY [K19C]	protein stability index	2.7
DKLALCHLELTRLLQDLIKDVLRY [K13L]	protein stability index	1.52
WKLALCHLELTRKLQDLIKDVLRY [D1W]	protein stability index	1.41
DKLALCHLELTRKLQDLIADVLRY [K19A]	protein stability index	1.17
DDLALCHLELTRKLQDLIKDVLRY [K2D]	protein stability index	3.04
DKLALCHLELTRKLQDLNKDVLRY [I18N]	protein stability index	2.4
DKLALCHLELTRKLQDWIKDVLRY [L17W]	protein stability index	4.39
DKLFLCHLELTRKLQDLIKDVLRY [A4F]	protein stability index	2.01
DKLALCHLELTRKPQDLIKDVLRY [L14P]	protein stability index	2.99
DKLALCHLKLTRKLQDLIKDVLRY [E9K]	protein stability index	3.04
DKLALCHLELTRKLQDLRKDVLRY [I18R]	protein stability index	2.76
DKDALCHLELTRKLQDLIKDVLRY [L3D]	protein stability index	2.09
DKLALCHLELTRKLQDLIKDVKRY [L22K]	protein stability index	1.65
DKLALCHLELTRKLQDLIKDVLRC [Y24C]	protein stability index	2.92
DKLALCHLELTRKCQDLIKDVLRY [L14C]	protein stability index	3.78
FKLALCHLELTRKLQDLIKDVLRY [D1F]	protein stability index	3.44
EKLALCHLELTRKLQDLIKDVLRY [D1E]	protein stability index	2.15
